These data points were gathered from patent US10172814B2.

Experiment: Unbound plasma concentration in human KI mice of the CFA model
Type: in vivo
Conditions: female, human PTGES knock-in (humanized KI, transgenic) mice, mouse, plasma, oral, 3 mg/kg; read-out: Plasma concentration Cplasma-unbound
Method: At termination of the experiments (48 h after CFA, 1 h after dose), hind paw tissue is collected for analysis of PGE2 levels (ELISA, Cayman Chemical item no. 514531). […] Statistical analysis is performed with one-way analysis of variance, followed by Bonferroni's multiple comparison test vs. vehicle controls using the GraphPad PRISM software, *p<0.05, **p<0.01.
Result type: concentration at 1 h (nM)

Compound	concentration at 1 h, nM
Cc1c(CCC(=O)O)cccc1NC(=O)[C@@H](c1ccc(-c2cncc(C(F)(F)F)c2)cc1)C1CCCC1	62

I. Cc1c(CCC(=O)O)cccc1NC(=O)C(c1ccc(-c2cncc(Cl)c2)c(F)c1)C1CCCC1 (single isomer, unassigned; (-))
II. Cc1c(NC(=O)C(c2ccc(-c3cncc(Cl)c3)cc2)C2CCCC2)cccc1C(C)CC(=O)O (single isomer, unassigned; stereoisomer 2)
Q: Could you check which of I and II has a smaller value for concentration at 1 h? State the label of the item chosen.
Ans: I
(I: 47 nM, II: 75 nM)

----------
molecular target: human PTGES (Homo sapiens (Human)); test: Human PTGES biochemical enzyme inhibition assay (conversion of PGH2 to PGE2, TR-FRET); conditions: Enzymatic conversion of PGH2 to PGE2; read-out: Human PTGES IC50
Result type: IC50 (nM)
Response body: numeric value in nM, unit text excluded.

Q: IC50 of CCOc1cncc(-c2ccc(C(C(=O)Nc3cccc(CCC(=O)O)c3C)C3CCCC3)c(F)c2)c1 (racemic) [Example 52] on human PTGES (Homo sapiens (Human))?
Ans: 273

Q: IC50 of Cc1c(NC(=O)C(c2ccc(-c3cncc(Cl)c3)c(F)c2)C2CCCC2)cccc1C(C)CC(=O)O (single isomer, unassigned; stereoisomer 2) [Example 127] on human PTGES (Homo sapiens (Human))?
Ans: 31.5

Q: IC50 of Cc1c(CCC(=O)O)cccc1NC(=O)C(c1ccc(-c2cccnc2F)cc1)C1CCCC1 (racemic) [Example 23] on human PTGES (Homo sapiens (Human))?
Ans: 5260

Q: IC50 of CCOc1cncc(-c2ccc(C(C(=O)Nc3cccc(C(C)CC(=O)O)c3C)C3CCCC3)cc2)c1 (mixture of isomers) [Example 90] on human PTGES (Homo sapiens (Human))?
Ans: 108

Q: IC50 of Cc1c(CC(C)C(=O)O)cccc1NC(=O)C(c1ccc(-c2cncc(C(F)(F)F)c2)cc1)C1CCCC1 (single isomer, unassigned; stereoisomer 2) [Example 70] on human PTGES (Homo sapiens (Human))?
Ans: 52.9

Q: IC50 of Cc1c(CCC(=O)O)cc(F)cc1NC(=O)C(c1ccc(-c2cncc(C(F)(F)F)c2)cc1)C1CCCC1 (racemic) [Example 167] on human PTGES (Homo sapiens (Human))?
Ans: 295

----------
experiment: Unbound plasma concentration in human KI mice of the CFA model; assay type: in vivo; conditions: female, human PTGES knock-in (humanized KI, transgenic) mice, mouse, plasma, oral, 1 mg/kg; read-out: Plasma concentration Cplasma-unbound
Result type: concentration at 1 h (nM)

Compound	concentration at 1 h, nM
Cc1c(CCC(=O)O)cccc1NC(=O)[C@@H](c1ccc(-c2cncc(C(F)(F)F)c2)cc1)C1CCCC1 [Example 2]	21

I. Cc1c(CCC(=O)O)cccc1NC(=O)C(c1ccc(-c2cncc(Cl)c2)c(F)c1)C1CCCC1 (single isomer, unassigned; (-)) [Example 44]
II. Cc1c(NC(=O)C(c2ccc(-c3cncc(Cl)c3)cc2)C2CCCC2)cccc1C(C)CC(=O)O (single isomer, unassigned; stereoisomer 2) [Example 87]
Q: Form field 'greater concentration at 1 h' accepts I or II ; which applies? State the label of the item chosen.
Ans: II

----------
biological target: human PTGES (Homo sapiens (Human), UniProt O14684); assay: Human PTGES biochemical enzyme inhibition assay (conversion of PGH2 to PGE2, TR-FRET); conditions: Enzymatic conversion of PGH2 to PGE2; read-out: Human PTGES IC50
Sequence (O14684 whole entry): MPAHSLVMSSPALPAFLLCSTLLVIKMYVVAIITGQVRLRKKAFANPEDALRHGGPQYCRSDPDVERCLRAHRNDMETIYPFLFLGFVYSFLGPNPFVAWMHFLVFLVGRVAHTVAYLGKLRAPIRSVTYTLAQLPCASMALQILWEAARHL
Result type: IC50 (nM)
Response body: numeric value in nM, unit text excluded.

Solved cases below.
Compound	Result
Cc1cncc(-c2ccc(C(C(=O)Nc3cccc(CCC(=O)O)c3C)C3CCC3)cc2)c1 (racemic)	344
COc1ccc(-c2ccc(C(C(=O)Nc3cccc(CCC(=O)O)c3C)C3CCCC3)cc2)cn1 (racemic)	236

Please find the next compound below.
Q: Need IC50, item Cc1c(NC(=O)C(c2ccc(-c3cncc(C(F)(F)F)c3)c(F)c2)C2CCCC2)cccc1C(C)CC(=O)O (single isomer, unassigned; stereoisomer 4) [Example 119]
Ans: 1060

----------
IC50: recorded values
biological target: human PTGES (Homo sapiens (Human)); assay: Human PTGES biochemical enzyme inhibition assay (conversion of PGH2 to PGE2, TR-FRET); details: Enzymatic conversion of PGH2 to PGE2; read-out: Human PTGES IC50
Response body: numeric value in nM, unit text excluded.

Solved cases below.
Molecule	Assayed target	Unit annotation	IC50
Cc1c(NC(=O)C(c2ccc(-c3cncc(Cl)c3)c(F)c2)C2CCC2)cccc1C(C)CC(=O)O (single isomer, unassigned; stereoisomer 1) [Example 150]	human PTGES (Homo sapiens (Human))	nM	2620
CCOc1cncc(-c2ccc(C(C(=O)Nc3cccc(CCC(=O)O)c3C)C3CCCCC3)cc2)c1 (racemic) [Example 67]	human PTGES (Homo sapiens (Human))	nM	328

Please find the next molecule below.
Q: Need IC50, item Cc1ncc(-c2ccc(C(C(=O)Nc3cccc(CCC(=O)O)c3C)C3CCCC3)cc2F)cc1CC(C)C (single isomer, unassigned; (-)) [Example 198]
Ans: 20

----------
% inhibition of PGE2 in vivo vs vehicle: recorded values
tested on: CFA induced PGE2 release in the ipsilateral inflamed hind paw of human KI mice (expressing human PTGES); assay: PGE2 measurements in CFA inflammation model using humanized KI mice; type: in vivo; settings: 1 mg/kg, p.o., single dose; hind paw 48 h after CFA, 1 h after dose
Response body: numeric value in %, unit text excluded.

Solved cases below.
Compound	% inhibition of PGE2 in vivo vs vehicle (%)
Cc1c(CCC(=O)O)cccc1NC(=O)C(c1ccc(-c2cncc(C(F)(F)F)c2)cc1)C1CCC1 (single isomer, unassigned; (-))	84
Cc1c(NC(=O)C(c2ccc(-c3cncc(Cl)c3)cc2)C2CCCC2)cccc1C(C)CC(=O)O (single isomer, unassigned; stereoisomer 2)	43
Cc1c(CCC(=O)O)cccc1NC(=O)C(c1ccc(-c2cncc(C(F)(F)F)c2)c(F)c1)C1CCCC1 (single isomer, unassigned; (-))	38
Cc1c(CCC(=O)O)cccc1NC(=O)[C@@H](c1ccc(-c2cncc(C(F)(F)F)c2)cc1)C1CCCC1	37

Please find the next compound below.
Q: Need % inhibition of PGE2 in vivo vs vehicle, item Cc1c(CCC(=O)O)cccc1NC(=O)C(c1ccc(-c2cncc(Cl)c2)c(F)c1)C1CCCC1 (single isomer, unassigned; (-))
Ans: 95

----------
concentration at 1 h: recorded values
experiment: Unbound plasma concentration in human KI mice of the CFA model; format: in vivo; conditions: female, human PTGES knock-in (humanized KI, transgenic) mice, mouse, in vivo, 1 mg/kg; read-out: Plasma concentration Cplasma-unbound
Response body: numeric value in nM, unit text excluded.

Compound	concentration at 1 h / nM
Cc1c(CCC(=O)O)cccc1NC(=O)C(c1ccc(-c2cncc(C(F)(F)F)c2)c(F)c1)C1CCCC1 (single isomer, unassigned; (-)) [Example 48]	11

Q: Need concentration at 1 h, item Cc1c(CCC(=O)O)cccc1NC(=O)C(c1ccc(-c2cncc(C(F)(F)F)c2)cc1)C1CCC1 (single isomer, unassigned; (-)) [Example 55]
Ans: 34

----------
pIC50: recorded values
Molecular target: UniProt O14684
Experiment: Human PTGES biochemical enzyme inhibition assay (conversion of PGH2 to PGE2, TR-FRET)
Conditions: Enzymatic conversion of PGH2 to PGE2; read-out: Human PTGES IC50
Excerpt: Human PTGES Biochemical Enzyme Inhibition Assay: PTGES (Microsomal prostaglandin E synthase 1) is an enzyme that converts prostaglandin H2 (PGH2) to prostaglandin E2 (PGE2) in the presence of reduced glutathione (GSH). Recombinant proteins (human isoforms) of PTGES containing a FLAG tag, expressed in baculovirus infected insect cells (Hi-5) and purified by affinity chromatography was used as enzyme in the assay. Substrate was prostaglandin H2 (Cayman Chemicals). […]
Please treat pIC50 as minus the base-10 logarithm of the molar concentration.

Solved cases below.
Compound	pIC50
CCC(CC(=O)O)c1cccc(NC(=O)[C@@H](c2ccc(-c3cncc(OC(C)C)c3)cc2)C2CCCC2)c1C (single isomer, unassigned)	7.78
Cc1c(CCC(=O)O)cccc1NC(=O)C(c1ccc(-c2cnc(F)c(C(F)(F)F)c2)c(F)c1)C1CCCC1 (single isomer, unassigned; (-))	7.71
Cc1c(NC(=O)C(c2ccc(-c3cncc(C(F)(F)F)c3)cc2)C2CCCC2)cccc1C1CC1C(=O)O (stereo not drawn)	7.48
Cc1c(NC(=O)C(c2ccc(-c3cncc(C(F)(F)F)c3)cc2)C2CCCC2)cccc1C(C)CC(=O)O (mixture of isomers)	7.69
Cc1c(NC(=O)C(c2ccc(-c3cncc(Cl)c3)c(F)c2)C2CCC2)cccc1C(C)CC(=O)O (stereo not drawn) [Example 149]	7.28
Cc1c(CC(C)C(=O)O)cccc1NC(=O)C(c1ccc(-c2cncc(C(F)(F)F)c2)cc1)C1CCCC1 (single isomer, unassigned; stereoisomer 1) [Example 69]	5.06

Q: Need pIC50, item CCOc1cncc(-c2ccc(C(C(=O)Nc3cccc(C(CC(=O)O)C4CC4)c3C)C3CCCC3)cc2)c1 (mixture of isomers)
Ans: 7.27

Q: Need pIC50, item Cc1c(CCC(=O)O)cccc1NC(=O)C(c1cc(F)c(-c2cncc(Cl)c2)cc1F)C1CCCC1 (racemic)
Ans: 6.57

Q: Need pIC50, item Cc1c(NC(=O)C(c2ccc(-c3cncc(C(F)F)c3)cc2)C2CCCC2)cccc1C(C)CC(=O)O (mixture of isomers)
Ans: 7.47

Q: Need pIC50, item Cc1c(NC(=O)C(c2ccc(-c3cncc(C(F)(F)F)c3)cc2)C2CCCC2)cccc1OCC(=O)O (single isomer, unassigned; (-)) [Example 34]
Ans: 8.01

Q: Need pIC50, item Cc1c(NC(=O)C(c2ccc(-c3cncc(Cl)c3)cc2)C2CCC2)cccc1C(C)CC(=O)O (single isomer, unassigned; stereoisomer 3) [Example 138]
Ans: 5.69

Q: Need pIC50, item Cc1ncc(-c2ccc(C(C(=O)Nc3cccc(CCC(=O)O)c3C)C3CCCC3)cc2)cc1F (racemic)
Ans: 6.72

Q: Need pIC50, item Cc1cc(C(C(=O)Nc2cccc(CCC(=O)O)c2C)C2CCCC2)c(Cl)cc1-c1cnc(C)c(Cl)c1 (racemic)
Ans: 6.35
